- System: Rat Kidney Medullary V2 Receptors (Rattus norvegicus)
- Construct: Medullary tissues from rat kidneys are dissected out; from tissue; host or cells: rat kidney medulla membranes
- Sequence (Q00788 whole entry): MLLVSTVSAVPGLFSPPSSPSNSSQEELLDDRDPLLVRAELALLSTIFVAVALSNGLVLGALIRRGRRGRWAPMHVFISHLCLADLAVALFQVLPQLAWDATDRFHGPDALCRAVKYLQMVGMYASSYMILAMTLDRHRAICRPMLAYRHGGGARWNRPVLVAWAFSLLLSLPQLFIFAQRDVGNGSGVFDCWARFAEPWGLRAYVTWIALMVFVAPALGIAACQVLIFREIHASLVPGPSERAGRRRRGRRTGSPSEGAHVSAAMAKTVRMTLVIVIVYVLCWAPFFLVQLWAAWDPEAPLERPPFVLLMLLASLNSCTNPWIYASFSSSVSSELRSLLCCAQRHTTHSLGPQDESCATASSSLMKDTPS
- Assay protocol: Binding Assay to Rat Kidney Medullary V2 Receptors
- Assay setup: Rat Kidney Medullary V2 Receptors (no asterisk)
- Protocol: Binding Assay to Rat Kidney Medullary V2 Receptors Medullary tissues from rat kidneys are dissected out, cut into small pieces and let soak in a […] sodium chloride solution containing 1.0 mM EDTA with many changes of the liquid phase, until the solution is clear of blood. […] The protein content is determined by the Lowry's method (Lowry et al, J. Biol. Chem., 1953). […]
Readout kind: IC50 (µM)

- Compound structure: "Cc1ccc(F)cc1C(=O)Nc1ccc(C(=O)N2CCc3c[nH]nc3-c3ncccc32)cc1"
  Quantitative readout: 0.03
- Compound structure: "O=C(Nc1ccc(C(=O)N2CCc3cn[nH]c3-c3sccc32)c(Cl)c1)c1cc(Cl)ccc1F"
  Quantitative readout: 0.036
- Compound structure: "O=C(Nc1ccc(C(=O)N2CCc3cn[nH]c3-c3sccc32)cc1)c1ccc(F)cc1Cl"
  Quantitative readout: 0.34
- Compound structure: "Cc1ccc(F)cc1C(=O)Nc1ccc(C(=O)N2CCc3c[nH]nc3-c3sccc32)c(Cl)c1"
  Quantitative readout: 0.0061
- Compound structure: "Cn1cc2c(n1)-c1sccc1N(C(=O)c1ccc(NC(=O)C3CCCCC3)cc1)CC2"
  Quantitative readout: 0.23
- Compound structure: "Cc1ccc(F)cc1C(=O)Nc1ccc(C(=O)N2CCc3cn[nH]c3-c3cccnc32)cc1"
  Quantitative readout: 0.55
- Compound structure: "O=C(Nc1ccc(C(=O)N2CCc3cn[nH]c3-c3ncccc32)cc1)c1ccccc1-c1ccccc1"
  Quantitative readout: 0.0016
